Here the recorded IC50 is given for each entry.
target: Translocator protein (Rattus norvegicus); experiment: Displacement of [3H]PK11195 from PBR in rat kidney mitochondrial membrane
Sequence (P16257 whole entry, looked up): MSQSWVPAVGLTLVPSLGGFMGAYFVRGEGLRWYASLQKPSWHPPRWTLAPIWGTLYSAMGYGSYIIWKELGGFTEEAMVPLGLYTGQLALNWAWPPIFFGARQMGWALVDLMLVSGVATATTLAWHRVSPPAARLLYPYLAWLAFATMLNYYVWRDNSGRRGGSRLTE
ASSAY_READOUT: IC50 (nM)

{"CHEMICAL_STRUCTURE": "CN(CCCF)C(=O)c1cc2ccccc2c(-c2ccc(I)cc2)n1", "ASSAY_VALUE": 66.5}
{"CHEMICAL_STRUCTURE": "CN(CCCF)C(=O)c1cc2ccccc2c(-c2ccccc2I)n1", "ASSAY_VALUE": 0.28}
{"CHEMICAL_STRUCTURE": "CN(CCF)C(=O)c1cc2ccccc2c(-c2ccccc2I)n1", "ASSAY_VALUE": 445}
{"CHEMICAL_STRUCTURE": "CN(CCCF)C(=O)c1cc2ccccc2c(-c2cccc(I)c2)n1", "ASSAY_VALUE": 1.4}
